- Study target: RECQ1-C453A (human, UniProt P46063 1-649, C453A)
- Sequence (P46063 whole entry C453A): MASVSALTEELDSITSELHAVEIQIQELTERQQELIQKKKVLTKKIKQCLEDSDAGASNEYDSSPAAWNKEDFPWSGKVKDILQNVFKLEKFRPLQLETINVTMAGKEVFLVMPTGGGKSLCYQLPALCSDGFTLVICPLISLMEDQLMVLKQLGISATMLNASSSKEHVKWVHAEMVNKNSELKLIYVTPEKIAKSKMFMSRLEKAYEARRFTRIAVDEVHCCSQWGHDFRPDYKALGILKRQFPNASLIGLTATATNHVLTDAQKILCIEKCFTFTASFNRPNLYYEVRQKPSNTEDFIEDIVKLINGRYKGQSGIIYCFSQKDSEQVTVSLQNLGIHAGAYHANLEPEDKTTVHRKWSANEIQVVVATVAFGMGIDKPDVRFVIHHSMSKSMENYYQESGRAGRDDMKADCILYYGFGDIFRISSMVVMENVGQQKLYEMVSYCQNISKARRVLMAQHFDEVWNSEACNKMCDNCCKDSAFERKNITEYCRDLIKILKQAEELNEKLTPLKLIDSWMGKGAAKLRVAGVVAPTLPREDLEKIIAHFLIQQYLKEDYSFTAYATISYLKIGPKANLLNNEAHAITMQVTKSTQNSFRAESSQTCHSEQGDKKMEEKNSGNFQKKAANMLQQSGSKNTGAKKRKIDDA
- Protocol description: MST
Measured parameter: pKd
# pKd is unitless: minus log10 of the molar concentration; print number only

### Prompt Entry forked duplex T44/FLAP26 (dsDNA) DNA 1: GCACTGGCCGTCGTTTTACGGTCGTGACTGGGAAAACCCTGGCG DNA 2: TTTTTTTTTTTTTTTTTTTTTTCCAAGTAAAACGACGGCCAGTGC needs its pKd filled in; supply it.
### Response 6.56
